Molecular target: UniProt:P30530
Assay: Phospho-Akt in-cell Western assay (Axl-antibody cross-linking stimulation)
Assay type: cell-based
Conditions: inhibition of Axl activity, Hela cells, phospho-Akt readout; Table 5, formula (Ia3)
pIC50: −log10 of the molar value.
Kindly state pIC50 for each of the entries shown.

Request: Report pIC50 for COc1cc2ncnc(-n3nc(Nc4ccc(N5CCOCC5)cc4)nc3N)c2cc1OC [Compound 158]
Result: > 6.00

Request: Give the reported value of pIC50 for this record: CCN(CC)C1CCN(c2ccc(Nc3nc(N)n(-c4nc(Cl)nc5c(C)csc45)n3)cc2F)C1 (centres unmarked) [Compound 211]
Result: > 6.00

Request: Report pIC50 for CN(C)[C@@H]1CCN(c2ccc(Nc3nc(N)n(-c4nccc5ccccc45)n3)cc2)C1 [Compound 164]
Result: > 6.00

Request: // fetch pIC50 given entry Nc1nc(Nc2ccc(C(=O)O)cc2)nn1-c1ccnc(N2CCC[C@H]2CN2CCCC2)c1 [Compound 146]
Result: < 4.70

Request: Name the recorded pIC50 of the item COc1cc2ncnc(-n3nc(Nc4ccc(N5CC[C@H](N(C)C)C5)cc4)nc3N)c2cc1OC [Compound 171] in your answer.
Result: > 6.00

Request: Given the compound Cc1cc(Nc2nc(N)n(-c3nc4ccccc4c4ccccc34)n2)ccc1N1CCC(N2CCCC2)CC1 [Compound 214] , write its reported pIC50.
Result: > 6.00

Request: Please give measured pIC50 of the following entry: Cc1csc2c(-n3nc(Nc4ccc(C(=O)N5CCN(C6CCCC6)CC5)cc4)nc3N)ncnc12 [Compound 207]
Result: > 6.00

Request: In one line, give reported pIC50 of the entry Nc1nc(Nc2ccc(-c3cnco3)cc2)nn1-c1nccc2ccccc12 [Compound 166] .
Result: < 4.70

###

Biological target: Axl (Homo sapiens (Human))
Experiment: Phospho-Akt in-cell Western assay (Axl-antibody cross-linking stimulation)
Format: cell-based
Conditions: inhibition of Axl activity, phospho-Akt in-cell Western assay
measurement label: IC50

Request: Give recorded IC50. Nc1nc(Nc2ccc(N3CCN(C4CC5CCC4C5)CC3)cc2)nn1-c1nc2ccccc2s1 (stereo not shown)
Result: 1000 to 10000 nM

Request: Given Nc1nc(Nc2ccc(N3CCN([C@H]4C[C@@H]5CC[C@H]4C5)CC3)cc2)nn1-c1ncnc2sccc12 , respond with its IC50.
Result: < 1000 nM

Request: Identify measured IC50 corresponding to Nc1nc(Nc2ccc(N3CCN(C4CCCC4)CC3)c(F)c2)nn1-c1nc2ccccc2c2ccccc12
Result: < 1000 nM

Request: Name the recorded IC50 of the item Nc1nc(Nc2ccc(N3CCN([C@H]4C[C@@H]5CC[C@H]4C5)CC3)cc2)nn1-c1nc(Cl)nc2ccsc12 in your answer.
Result: < 1000 nM

###

Biological target: Axl (Homo sapiens (Human))
Assay: Phospho-Akt in-cell Western assay (Axl-antibody cross-linking stimulation)
Assay type: cell-based
Conditions: inhibition of Axl activity, Hela cells, phospho-Akt readout; Table 5, formula (Ia3)
pIC50: −log10 of the molar value.
measurement label: pIC50

Request: Return value of pIC50 for input Cc1csc2c(-n3nc(Nc4ccc(C(=O)NCCN5CCCC5)cc4)nc3N)nc(Cl)nc12 [Compound 208] , no commentary.
Result: > 6.00

Request: Read off the recorded pIC50 for COc1cc2ncnc(-n3nc(Nc4ccc(N5CCOCC5)c(Cl)c4)nc3N)c2cc1OC [Compound 159]
Result: > 6.00

Request: // fetch pIC50 given entry COc1cc2ncnc(-n3nc(Nc4ccc(C(=O)N5CCN(C6CCCC6)CC5)cc4)nc3N)c2cc1OC [Compound 206]
Result: > 6.00

Request: Please look at this compound and report its pIC50: Nc1nc(Nc2cc(F)c(F)c(F)c2)nn1-c1ccccn1 [Compound 149]
Result: < 4.70

Request: Read the entry COc1cc2ncnc(-n3nc(Nc4ccc(C5CCN(C)CC5)cc4)nc3N)c2cc1OC [Compound 168] and write its reported pIC50.
Result: > 6.00

Request: Find the measured pIC50 of CCOC(=O)c1ccc(Nc2nc(N)n(-c3ccnc(Cl)c3)n2)cc1 [Compound 143] and report it.
Result: < 4.70

###

Molecular target: Axl (Homo sapiens (Human), UniProt P30530)
Sequence (P30530 26-894): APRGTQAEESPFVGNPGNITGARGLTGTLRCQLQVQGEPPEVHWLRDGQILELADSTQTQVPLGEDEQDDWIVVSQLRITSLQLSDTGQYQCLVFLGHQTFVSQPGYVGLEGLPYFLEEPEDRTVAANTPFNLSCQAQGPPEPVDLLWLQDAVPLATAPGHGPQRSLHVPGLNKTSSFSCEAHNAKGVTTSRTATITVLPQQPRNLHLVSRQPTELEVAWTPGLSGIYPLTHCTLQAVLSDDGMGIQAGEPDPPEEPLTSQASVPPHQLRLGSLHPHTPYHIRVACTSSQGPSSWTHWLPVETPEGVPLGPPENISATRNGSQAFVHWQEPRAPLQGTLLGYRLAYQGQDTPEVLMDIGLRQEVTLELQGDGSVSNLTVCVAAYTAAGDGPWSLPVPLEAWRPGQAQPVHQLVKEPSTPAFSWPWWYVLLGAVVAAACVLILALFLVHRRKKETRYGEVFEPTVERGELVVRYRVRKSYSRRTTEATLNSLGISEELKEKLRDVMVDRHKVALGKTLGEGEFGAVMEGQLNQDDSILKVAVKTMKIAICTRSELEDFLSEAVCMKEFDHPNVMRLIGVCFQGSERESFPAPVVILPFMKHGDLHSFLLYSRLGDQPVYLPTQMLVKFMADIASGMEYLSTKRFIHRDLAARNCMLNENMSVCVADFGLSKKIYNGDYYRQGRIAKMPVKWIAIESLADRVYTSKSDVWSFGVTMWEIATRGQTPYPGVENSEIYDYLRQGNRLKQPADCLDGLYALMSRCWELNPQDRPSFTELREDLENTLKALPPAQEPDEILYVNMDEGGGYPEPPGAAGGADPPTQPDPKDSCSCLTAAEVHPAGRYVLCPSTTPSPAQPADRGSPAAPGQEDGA
Experiment: Phospho-Akt in-cell Western assay (Axl-antibody cross-linking stimulation)
Assay type: cell-based
Details: inhibition of Axl activity, phospho-Akt in-cell Western assay
pIC50: −log10 of the molar value.
Give pIC50 for every item shown.

Request: Given COc1cc2ncnc(-n3nc(Nc4ccc(N5CCN(C6C7CCCC6CCC7)CC5)cc4)nc3N)c2cc1OC (stereo not shown) , respond with its pIC50.
Result: 5.00 to 6.00

Request: State its pIC50 for this molecule: Cc1csc2c(-n3nc(Nc4ccc(N5CCN([C@H]6C[C@@H]7CC[C@H]6C7)CC5)cc4)nc3N)ncnc12
Result: > 6.00

Request: Tell me its pIC50 given CC(C)(C)c1cc2ncnc(-n3nc(Nc4ccc(N5CCN(C6CC7CCC6C7)CC5)cc4)nc3N)c2s1 (stereo not shown) as the entry.
Result: > 6.00

Request: Please list pIC50 recorded for the molecule Cc1csc2c(-n3nc(Nc4ccc(N5CCN([C@H]6C[C@@H]7CC[C@H]6C7)CC5)c(Cl)c4)nc3N)ncnc12
Result: > 6.00

Request: Dear colleague, please send me the reported pIC50 for COc1cc2ncnc(-n3nc(Nc4ccc(N5CCN(C6CCCCCCC6)CC5)cc4)nc3N)c2cc1OC when you can.
Result: < 4.70

Request: Give the reported pIC50 for this molecule. CN1CCN(c2ccc(Nc3nc(N)n(-c4nccc5ccccc45)n3)cc2)CC1
Result: > 6.00

Request: Output pIC50 of Nc1nc(Nc2ccc(N3CCN([C@H]4C[C@@H]5CC[C@H]4C5)CC3)c(F)c2)nn1-c1ccc(-c2ccccc2)nn1
Result: 5.00 to 6.00

Request: Answer with the recorded pIC50 of CN1CCN(c2ccc(Nc3nc(N)n(-c4ncc5c(n4)-c4ccccc4CC5)n3)cc2)CC1 only.
Result: > 6.00

Request: Report pIC50 for Cc1csc2c(-n3nc(Nc4ccc(N5CCN([C@H]6C[C@@H]7CC[C@H]6C7)CC5)c(F)c4)nc3N)ncnc12 [Compound 201]
Result: > 6.00

Request: Name the recorded pIC50 of the item Nc1nc(Nc2ccc(N3CCN(C4CC5CCC4C5)CC3)cc2)nn1-c1ncnc2sccc12 (stereo not shown) in your answer.
Result: > 6.00

###

Can you tell me IC50 for the items I'm about to list?
Target: Axl (Homo sapiens (Human), UniProt P30530)
Assay: Phospho-Akt in-cell Western assay (Axl-antibody cross-linking stimulation)
Assay type: cell-based
Settings: inhibition of Axl activity, phospho-Akt in-cell Western assay

Request: Output measured IC50 for this item: CN1CCN(c2ccc(Nc3nc(N)n(-c4nccc5[nH]c(=O)ccc45)n3)cc2F)CC1
Result: < 1000 nM

Request: Specify measured IC50 for Nc1nc(Nc2ccc(N3CCN(C4CCCCC4)CC3)cc2)nn1-c1nccc2ccccc12 .
Result: < 1000 nM

Request: Please give measured IC50 of the following entry: COc1ccc2nc(Cl)c(-n3nc(Nc4ccc(N5CCN([C@H]6C[C@@H]7CC[C@H]6C7)CC5)c(F)c4)nc3N)nc2c1
Result: 1000 to 10000 nM

###

Target: Axl (Homo sapiens (Human), UniProt P30530)
Test: Phospho-Akt in-cell Western assay (Axl-antibody cross-linking stimulation)
Type: cell-based
Settings: inhibition of Axl activity, Hela cells, phospho-Akt readout; Table 5, formula (Ia3)
pIC50: −log10 of the molar value.
measurement label: pIC50

Request: Could you please provide reported pIC50 for Nc1nc(Nc2ccc(CCC(=O)N3CCCC3)cc2)nn1-c1cnc2ccccc2n1 ? Thanks!
Result: < 4.70

Request: Please give the documented pIC50 of Cc1csc2c(-n3nc(Nc4ccc(C5CCN(C6CC7CCC6C7)CC5)cc4)nc3N)ncnc12 (stereo not drawn)
Result: > 6.00

Request: Return pIC50 for the following compound: CC(=O)c1ccc(Nc2nc(N)n(-c3cnc4ccccc4n3)n2)cc1
Result: < 4.70

Request: Answer with reported pIC50 of COc1ccc2nc(Cl)c(-n3nc(Nc4ccc(N5CCC(N6CCCC6)CC5)c(F)c4)nc3N)nc2c1
Result: > 6.00

Request: Dear colleague, please send me the reported pIC50 for Cc1csc2c(-n3nc(Nc4ccc(N5CCC(N6CC7CCC6C7)CC5)c(F)c4)nc3N)ncnc12 (stereo not drawn) when you can.
Result: > 6.00

Request: Identify measured pIC50 corresponding to CCOC(=O)c1ccc(Nc2nc(NC)n(-c3ccccc3)n2)cc1
Result: < 4.70

###

Target: Axl (Homo sapiens (Human))
Assay: Phospho-Akt in-cell Western assay (Axl-antibody cross-linking stimulation)
Assay type: cell-based
Details: inhibition of Axl activity, Hela cells, phospho-Akt readout; Table 1, formula (Ia1)
pIC50: −log10 of the molar value.
What pIC50 was measured for each of the following?

Request: # return recorded pIC50 for input Nc1nc(Nc2ccc(OCCN3CCCC3)c(Cl)c2)nn1-c1ncnc2sc3c(c12)CCCC3 [Compound 67]
Result: > 6.00

Request: Look up and report measured pIC50 for this entry: Nc1nc(Nc2ccc(OCCN3CCCC3)cc2)nn1-c1ccc(Cl)cn1 [Compound 17]
Result: 5.00 to 6.00

Request: Return reported pIC50. Input compound: Nc1nc(Nc2ccc(OCCN3CCCC3)cc2)nn1-c1nc(C(F)(F)F)nc2ccccc12 [Compound 53]
Result: > 6.00

Request: Supply reported pIC50 belonging to this compound: Nc1nc(Nc2ccc(OCCN3CCCC3)c(F)c2)nn1-c1cnc2ccccc2n1 [Compound 55]
Result: > 6.00
